- assay_target: T1, MaturePDGF-β_NterminalPeptide
- T1 construct: an N-terminal G was added and is left out of the numbering; also called PDGF-β peptide
- T1 peptide: RhodamineB-GSLGSLTIAEPAMIAE
- test_description: fluorescence anisotropy; 20 nM rhodamine PDGF-β N-terminal peptide, unlabeled RPtag large variant titrated; bar of Ka = 1/Kd, left axis
No end group written: not given here. *: point of attachment. RhodamineB = CCN(CC)c1ccc2c(-c3ccccc3C(=O)*)c3ccc(=[N+](CC)CC)cc-3oc2c1

binder	binding result
m270e (designed binder, also called RPtag(large) M270E) single chain: MGSSCHHHHHHSQDPNSSSMKEGKTIGLVISTLNNPFFVTLKNGAEEKAKELGYKIIVEDSQNDSSKELSNVEDLIQQKVDVLLINPVDSDAVVTAIKEANSKNIPVITIDRSANGGDVVSHIASDNVKGGEMAAEFIAKALKGKGNVVELEGIPGASAARDRGKGFDEAIAKYPDIKIVAKQAADFDRSKGLSVMENILQAQPKIDAVFAQNDEMALGAIKAIEAANRQGIIVVGFDGTEDALKAIKEGKMAATIAQQPALMGSLGVEEADKYLK	binds
m270r (designed binder, also called RPtag(large) M270R) single chain: MGSSCHHHHHHSQDPNSSSMKEGKTIGLVISTLNNPFFVTLKNGAEEKAKELGYKIIVEDSQNDSSKELSNVEDLIQQKVDVLLINPVDSDAVVTAIKEANSKNIPVITIDRSANGGDVVSHIASDNVKGGEMAAEFIAKALKGKGNVVELEGIPGASAARDRGKGFDEAIAKYPDIKIVAKQAADFDRSKGLSVMENILQAQPKIDAVFAQNDEMALGAIKAIEAANRQGIIVVGFDGTEDALKAIKEGKMAATIAQQPALMGSLGVERADKYLK	binds
